B1: SLC35F2 (parent)
chain: SFMPLVIKVTSATSVNLGILTADL

- Variants of: B1
- protocolDescription: protein stability index of a GFP-peptide fusion (GPS, HEK-293T) (PSI 1-6); higher = more stable;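 further: lentivirally expressed fusions sorted by FACS into six bins by GFP to DsRed ratio, PSI derived from sequencing read proportions per bin multiplied by bin number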
- appliedConditions: c terminus: a fixed tail appended
measurementKind: protein stability index
Give the figure only, with no unit attached.

Known results for variants:
{"columns": ["mutationSpec", "numericValue"],
 "data": [
  ["S1H", 2.96],
  ["I7F", 3.03]
]}

// below: protein stability index requested for another variant
Task: Let me know recorded protein stability index for `D23I` , thanks.
Result: 3.05

Taken from the supplement of paper PMC10567573.
